Heads up, these compounds all have pIC50 values measured for KFDV NS5 (Kyasanur Forest disease virus).
// field semantics: pIC50 = negative decimal log of concentration (mol/L)

Summary for this compound, CC(C)OC(=O)[C@H](C)N[P@](=O)(OC[C@H]1O[C@@H](n2ccc(=O)[nH]c2=O)[C@](C)(F)[C@@H]1O)Oc1ccccc1 : pIC50 is 5.46

Summary for this compound, C[C@@]1(F)[C@H](O)[C@@H](COP(=O)(O)OP(=O)(O)OP(=O)(O)O)O[C@H]1n1ccc(=O)[nH]c1=O [sofosbuvir triphosphate] : pIC50 is 5.43
